Numbers sourced from patent US12649712B2.

Examples of molecules with documented inhibition at 10 µM follow.
test system: alpha-smooth muscle actin (α-SMA); assay: Inhibition of TGF-β induced expression of alpha-smooth muscle actin (α-SMA) in CFSC cells, western blot; type: cell-based; conditions: compound at 10 μM, TGF-β (10 ng/mL), 24 hours, decrease in band intensity vs TGF-β only

- structure_notation: "CC1=C(CC(=O)O)c2cc(F)ccc2/C1=C\\c1ccc(Oc2cccc([N+](=O)[O-])c2)cc1"
  target: "alpha-smooth muscle actin (α-SMA)"
  inhibition at 10 µM: "< 50%"
- structure_notation: "CC1=C(CC(=O)NCCO)c2cc(F)ccc2/C1=C\\c1ccc(Oc2ccc(F)cc2)cc1"
  target: "alpha-smooth muscle actin (α-SMA)"
  inhibition at 10 µM: "80 to 90%"
- structure_notation: "COc1ccc(Oc2ccc(/C=C3/C(C)=C(CC(=O)O)c4cc(F)ccc43)cc2)cc1"
  target: "alpha-smooth muscle actin (α-SMA)"
  inhibition at 10 µM: "> 90%"
- structure_notation: "C=C(C)c1ccc(/C=C2/C(C)=C(CC(=O)O)c3cc(F)ccc32)cc1"
  target: "alpha-smooth muscle actin (α-SMA)"
  inhibition at 10 µM: "< 50%"
- structure_notation: "CC1=C(CC(=O)O)c2cc(F)ccc2/C1=C\\c1ccc(Oc2cccc3ncccc23)cc1"
  target: "alpha-smooth muscle actin (α-SMA)"
  inhibition at 10 µM: "50 to 70%"
- structure_notation: "CC1=C(CC(=O)O)c2cc(F)ccc2/C1=C/c1ccc(Oc2ccccc2)cc1"
  target: "alpha-smooth muscle actin (α-SMA)"
  inhibition at 10 µM: "> 90%"
- structure_notation: "CC1=C(CC(=O)N(C)O)c2cc(F)ccc2/C1=C\\c1ccc(Oc2ccccc2)cc1"
  target: "alpha-smooth muscle actin (α-SMA)"
  inhibition at 10 µM: "80 to 90%"
- structure_notation: "CC1=C(CC(=O)NO)c2cc(F)ccc2/C1=C\\c1ccc(Oc2ccc(F)cc2)cc1"
  target: "alpha-smooth muscle actin (α-SMA)"
  inhibition at 10 µM: "80 to 90%"
- structure_notation: "CC1=C(CC(=O)O)c2cc(F)ccc2/C1=C\\c1ccc(Oc2cccc(C(F)(F)F)c2)cc1Cl"
  target: "alpha-smooth muscle actin (α-SMA)"
  inhibition at 10 µM: "> 90%"
- structure_notation: "COc1cc(Oc2ccc(C(C)C)cc2)ccc1/C=C1/C(C)=C(CC(=O)O)c2cc(F)ccc21"
  target: "alpha-smooth muscle actin (α-SMA)"
  inhibition at 10 µM: "< 50%"
- structure_notation: "CC1=C(CC(=O)O)c2c(ccc(F)c2C)/C1=C\\c1ccc(Oc2ccc(F)cc2)cc1"
  target: "alpha-smooth muscle actin (α-SMA)"
  inhibition at 10 µM: "> 90%"
- structure_notation: "CC1=C(CCc2nnn[nH]2)c2ccccc2/C1=C\\c1ccc(Oc2cccc(C#N)c2)cc1"
  target: "alpha-smooth muscle actin (α-SMA)"
  inhibition at 10 µM: "> 90%"
- structure_notation: "CC1=C(CC(=O)O)c2cc(F)ccc2/C1=C\\c1ccc(C2CC2)cc1"
  target: "alpha-smooth muscle actin (α-SMA)"
  inhibition at 10 µM: "80 to 90%"
- structure_notation: "CCCN(c1ccc(F)cc1)c1ccc(/C=C2/C(C)=C(CC(=O)O)c3cc(F)ccc32)cc1"
  target: "alpha-smooth muscle actin (α-SMA)"
  inhibition at 10 µM: "70 to 80%"
- structure_notation: "COc1cccc(Oc2ccc(/C=C3/C(C)=C(CCc4nnn[nH]4)c4ccccc43)cc2)c1"
  target: "alpha-smooth muscle actin (α-SMA)"
  inhibition at 10 µM: "> 90%"
- structure_notation: "CC1=C(CC(=O)O)c2cc(F)ccc2/C1=C\\c1ccc(Oc2ccc(F)c(F)c2)cc1"
  target: "alpha-smooth muscle actin (α-SMA)"
  inhibition at 10 µM: "> 90%"
